The measurements presented in this section are drawn from paper PMC12511343.

# SYSTEM: T1, 4-Met substituted E. coli Cir (colicin Ia receptor), the paper's wildtype (WT) Cir (E. coli, UniProt P17315 26-663, W338 mutated to methionine | L343 mutated to methionine | F589 mutated to …)
# T1 construct: Cir (colicin Ia receptor, TonB-dependent transporter), E. coli, mature coding region of cirA with four residues changed to methionine (4-Met); No TEV cleavage of Cir is described; also called apo-Cir; His-tagged Cir; not shown: His10, N-terminal, kept
# T1 sequence (looked up): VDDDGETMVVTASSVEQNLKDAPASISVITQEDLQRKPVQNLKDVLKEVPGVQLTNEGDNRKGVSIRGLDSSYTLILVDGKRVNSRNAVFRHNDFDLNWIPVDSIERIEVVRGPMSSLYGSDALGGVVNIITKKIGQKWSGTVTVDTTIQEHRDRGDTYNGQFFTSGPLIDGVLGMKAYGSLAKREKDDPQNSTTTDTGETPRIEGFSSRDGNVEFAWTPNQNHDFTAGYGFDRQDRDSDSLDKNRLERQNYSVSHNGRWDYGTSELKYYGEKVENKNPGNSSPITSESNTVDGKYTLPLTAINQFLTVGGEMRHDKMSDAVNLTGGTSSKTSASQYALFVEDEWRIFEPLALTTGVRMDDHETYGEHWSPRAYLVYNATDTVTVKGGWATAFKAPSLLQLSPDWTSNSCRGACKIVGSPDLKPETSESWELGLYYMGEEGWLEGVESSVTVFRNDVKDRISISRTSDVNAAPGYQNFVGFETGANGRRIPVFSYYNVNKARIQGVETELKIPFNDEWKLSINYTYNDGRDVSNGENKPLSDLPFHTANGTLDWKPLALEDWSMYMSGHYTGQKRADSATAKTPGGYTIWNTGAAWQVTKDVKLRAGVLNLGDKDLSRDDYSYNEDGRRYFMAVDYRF
# METHOD_SUMMARY: BLI; biotinylated MccV (100 nM) on streptavidin sensors, WT Cir 5 uM to 78 nM in PBS-T; steady state equilibrium, 1:1 binding model; incomplete equilibrium during the association phase
# CONDITION_SET: both partners purified
MEASUREMENT_TYPE: Kd

### Prompt Which measured Kd value corresponds to Microcin V (MccV), mature, wildtype (natural protein, E. coli, UniProt P22522 16-103, looked up, biotinylated (EZ-Link Sulfo-NHS-LC kit) for BLI and ELISA; not labelled for cryo-EM and SV-AUC, Only residues 57-88 (mature numbering) were resolved in the map; also called WT MccV; Colicin V; source: E. coli BL21 (DE3), purified (HisTrap as His6-MBP fusion, TEV cleavage, second nickel column, flowthrough); not shown: His6, N-terminal, cleaved; MBP, N-terminal, cleaved) ASGRDIAMAIGTLSGQFVAGGIGAAAGGVAGGAIYDYASTHKPNPAMSPSGLGGTIKQKPEGIPSEAWNYAAGRLCNWSPNNLSDVCL ?
### Response 1700 nM
